Target: LIN28–let-7 interaction (Homo sapiens)
Construct: Purified LIN28A (residues 16–187) was incubated at a concentration of 200 nM; His-tag (cleaved yes); made in house; host or cells: Escherichia coli BL21(DE3)
Assay: Fluorescence polarization (FP) assay, LIN28A (residues 16–187) and FAM-labeled preE-let-7f-1
Format: binding
Details: raw data Table S3; 0.041 μM compound; four replicates
FP, Average (mP) values for the compounds below.
# number only, unit mP dropped from output

Known results for compounds:
| compound | targetDesc | FP, Average (mP) |
| --- | --- | --- |
| O=C(C1=C(O)C(=O)N(c2ccc(O)c([N+](=O)[O-])c2)C1c1ccc(-c2nccs2)cc1)c1ccccc1 (stereo not shown) | LIN28–let-7 interaction (Homo sapiens) | 113.25 |
| O=C(O)c1ccc(C2C(C(=O)c3ccccc3)=C(O)C(=O)N2c2ccc(C(=O)O)c(O)c2)cc1 (stereo not shown) | LIN28–let-7 interaction (Homo sapiens) | 113.00 |
| O=C(O)c1ccc(C2C(C(=O)c3ccccc3)=C(O)C(=O)N2c2ccc(O)c(C(=O)O)c2)cc1 (stereo not shown) | LIN28–let-7 interaction (Homo sapiens) | 111.50 |
| O=C(C1=C(O)C(=O)N(c2ccc(O)cc2)C1c1ccc(-c2nccs2)cc1)c1ccc(Br)cc1 (stereo not shown) | LIN28–let-7 interaction (Homo sapiens) | 115.25 |
| O=C(C1=C(O)C(=O)N(c2ccc(O)c(C(=O)O)c2)C1c1ccc(-c2nccs2)cc1)c1ccco1 (stereo not shown) | LIN28–let-7 interaction (Homo sapiens) | 110.50 |
| O=C(C1=C(O)C(=O)N(c2ccc(O)c(C(=O)O)c2)C1c1ccc(-c2nccs2)cc1)c1ccccc1 (stereo not shown) | LIN28–let-7 interaction (Homo sapiens) | 117.25 |

Next compound, FP, Average (mP) to be filled in.
q: For the record O=C(C1=C(O)C(=O)N(c2ccc(C(=O)O)c(O)c2)C1c1ccc(-c2nccs2)cc1)c1ccc(Br)cc1 (stereo not shown) , what value of FP, Average (mP) is listed for LIN28–let-7 interaction (Homo sapiens)?
a: 110.75

----------
Molecular target: LIN28–let-7 interaction (Homo sapiens)
Construct: Purified LIN28A (residues 16–187) was incubated at a concentration of 200 nM; His-tag (cleaved yes); made in house; host or cells: Escherichia coli BL21(DE3)
Sequence (Q9H9Z2 16-187): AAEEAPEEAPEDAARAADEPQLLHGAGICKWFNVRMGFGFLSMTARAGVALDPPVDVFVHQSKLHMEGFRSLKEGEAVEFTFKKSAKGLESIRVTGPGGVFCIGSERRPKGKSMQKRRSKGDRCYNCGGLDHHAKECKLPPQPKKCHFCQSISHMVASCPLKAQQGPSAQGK
Test: Fluorescence polarization (FP) assay, LIN28A (residues 16–187) and FAM-labeled preE-let-7f-1
Type: binding
Conditions: Table 1; quadruplicate; starting from a maximum of 60 μM, eight concentrations; extrapolated based on the observed IC50 curves; read-out: IC50, LIN28–let-7 inhibitory activity
IC50 values for the compounds below.

| compound | IC50 |
| --- | --- |
| O=C(C1=C(O)C(=O)N(c2ccc(O)cc2)C1c1ccc(-c2nccs2)cc1)c1ccc(Br)cc1 (stereo not drawn) | > 100 µM |
| O=C(O)c1ccc(C2C(C(=O)c3ccccc3)=C(O)C(=O)N2c2ccc(O)cc2)cc1 (stereo not drawn) | > 100 µM |

Next compound, IC50 to be filled in.
q: Need IC50 of O=C(C1=C(O)C(=O)N(c2ccc(C(=O)O)c(O)c2)C1c1ccc(-c2nccs2)cc1)c1ccc(Br)cc1 (stereo not drawn) , thanks.
a: > 100 µM

----------
Target: LIN28–let-7 interaction (Homo sapiens)
Construct: Purified LIN28A (residues 16–187) was incubated at a concentration of 200 nM; His-tag (cleaved yes); made in house; host or cells: Escherichia coli BL21(DE3)
Sequence (Q9H9Z2 16-187): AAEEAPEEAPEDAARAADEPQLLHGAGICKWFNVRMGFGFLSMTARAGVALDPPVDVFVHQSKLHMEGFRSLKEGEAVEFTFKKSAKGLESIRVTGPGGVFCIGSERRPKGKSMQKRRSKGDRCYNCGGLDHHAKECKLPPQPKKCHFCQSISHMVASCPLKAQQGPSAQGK
Assay: Fluorescence polarization (FP) assay, LIN28A (residues 16–187) and FAM-labeled preE-let-7f-1
Type: binding
Settings: raw data Table S3; 29.688 μM compound; four replicates
experimentalReadout: FP, Average (mP)
# number only, unit mP dropped from output

q: For the record O=C(C1=C(O)C(=O)N(c2ccc(O)c(C(=O)O)c2)C1c1ccc(-c2nccs2)cc1)c1ccccc1 (stereo not shown) , what value of FP, Average (mP) is listed for LIN28–let-7 interaction (Homo sapiens)?
a: 73.03

q: For the record O=C(C1=C(O)C(=O)N(c2ccc(O)c([N+](=O)[O-])c2)C1c1ccc(-c2nccs2)cc1)c1ccccc1 (stereo not shown) , what value of FP, Average (mP) is listed for LIN28–let-7 interaction (Homo sapiens)?
a: 86.53

q: For the record O=C(O)c1ccc(C2C(C(=O)c3ccccc3)=C(O)C(=O)N2c2ccc(C(=O)O)c(O)c2)cc1 (stereo not shown) , what value of FP, Average (mP) is listed for LIN28–let-7 interaction (Homo sapiens)?
a: 50.30

q: For the record O=C(C1=C(O)C(=O)N(c2ccc(O)c(C(=O)O)c2)C1c1ccc(-c2nccs2)cc1)c1ccc(Br)cc1 (stereo not shown) , what value of FP, Average (mP) is listed for LIN28–let-7 interaction (Homo sapiens)?
a: 43.05

----------
Target: LIN28–let-7 interaction (Homo sapiens)
Construct: Purified LIN28A (residues 16–187) was incubated at a concentration of 200 nM; His-tag (cleaved yes); made in house; host or cells: Escherichia coli BL21(DE3)
Sequence (Q9H9Z2 16-187): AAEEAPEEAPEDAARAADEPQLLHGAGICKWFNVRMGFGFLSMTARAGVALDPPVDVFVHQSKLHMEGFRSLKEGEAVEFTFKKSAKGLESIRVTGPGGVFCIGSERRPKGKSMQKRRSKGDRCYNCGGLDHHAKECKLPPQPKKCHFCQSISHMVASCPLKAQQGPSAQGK
Assay: Fluorescence polarization (FP) assay, LIN28A (residues 16–187) and FAM-labeled preE-let-7f-1
Format: binding
Conditions: raw data Table S3; 29.688 μM compound; four replicates
Please note: rule met applies when FP, Average (mP) is 60 mP or greater, and rule not met applies otherwise.

Some entries whose results are on file:
| compound | assignedCategory |
| --- | --- |
| O=C(C1=C(O)C(=O)N(c2ccc(C(=O)O)c(O)c2)C1c1ccc(-c2nccs2)cc1)c1ccc(Br)cc1 (stereo not drawn) | rule met |
| COc1ccc(C(=O)C2=C(O)C(=O)N(c3ccc(O)c(C(=O)O)c3)C2c2ccc(-c3nccs3)cc2)cc1OC (stereo not drawn) | rule met |
| O=C(O)c1ccc(C2C(C(=O)c3ccccc3)=C(O)C(=O)N2c2ccc(O)cc2)cc1 (stereo not drawn) | rule met |
| O=C(C1=C(O)C(=O)N(c2ccc(O)cc2)C1c1ccc(-c2nccs2)cc1)c1ccc(Br)cc1 (stereo not drawn) | rule met |

q: Item O=C(C1=C(O)C(=O)N(c2ccc(O)c(C(=O)O)c2)C1c1ccc(-c2nccs2)cc1)c1ccco1 (stereo not drawn) with FP, Average (mP) of 60 mP or above?
a: rule not met

q: Item O=C(O)c1ccc(C2C(C(=O)c3ccccc3)=C(O)C(=O)N2c2ccc(O)c(C(=O)O)c2)cc1 (stereo not drawn) with FP, Average (mP) of 60 mP or above?
a: rule not met

----------
Target: LIN28–let-7 interaction (Homo sapiens, UniProt Q9H9Z2)
Construct: Purified LIN28A (residues 16–187) was incubated at a concentration of 200 nM; His-tag (cleaved yes); made in house; host or cells: Escherichia coli BL21(DE3)
Sequence (Q9H9Z2 16-187): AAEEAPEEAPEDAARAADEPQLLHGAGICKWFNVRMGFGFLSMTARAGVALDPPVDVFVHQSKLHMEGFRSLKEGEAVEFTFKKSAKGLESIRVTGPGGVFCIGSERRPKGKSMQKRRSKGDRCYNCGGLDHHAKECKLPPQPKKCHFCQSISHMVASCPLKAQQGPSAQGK
Assay: Fluorescence polarization (FP) assay, LIN28A (residues 16–187) and FAM-labeled preE-let-7f-1
Type: binding
Conditions: raw data Table S3; 1.103 μM compound; four replicates
experimentalReadout: FP, Average (mP)
# number only, unit mP dropped from output

Known results for compounds:
| compound | FP, Average (mP) |
| --- | --- |
| O=C(C1=C(O)C(=O)N(c2ccc(C(=O)O)c(O)c2)C1c1ccc(-c2nccs2)cc1)c1ccc(Br)cc1 (stereo not drawn) | 116.25 |
| O=C(O)c1ccc(C2C(C(=O)c3ccccc3)=C(O)C(=O)N2c2ccc(O)c(C(=O)O)c2)cc1 (stereo not drawn) | 112.00 |

Next compound, FP, Average (mP) to be filled in.
q: For the record O=C(O)c1ccc(C2C(C(=O)c3ccccc3)=C(O)C(=O)N2c2ccc(C(=O)O)c(O)c2)cc1 (stereo not drawn) , what value of FP, Average (mP) is listed for LIN28–let-7 interaction (Homo sapiens, UniProt Q9H9Z2)?
a: 113.25
